Ref: patent US12612420B2

study.system: recombinant human arginase 2 (hARG2) (Homo sapiens)
Sequence (P78540 23-354): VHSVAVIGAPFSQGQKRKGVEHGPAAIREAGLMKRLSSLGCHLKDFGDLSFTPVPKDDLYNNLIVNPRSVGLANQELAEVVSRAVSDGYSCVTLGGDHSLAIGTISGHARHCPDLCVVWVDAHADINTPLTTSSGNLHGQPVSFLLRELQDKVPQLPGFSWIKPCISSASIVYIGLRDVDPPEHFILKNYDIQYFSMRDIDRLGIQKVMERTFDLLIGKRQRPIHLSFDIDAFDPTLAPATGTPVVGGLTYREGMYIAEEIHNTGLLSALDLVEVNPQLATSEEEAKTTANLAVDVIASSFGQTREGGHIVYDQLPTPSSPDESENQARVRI
test.description: Human arginase inhibition assay (colorimetric urea detection), arginase 2
condition.info: IC50 class; hydrochloride salts; 1 h at 37° C., pH 7.4, 20 mM L-arginine, 200 μM MnCl2; read-out: Activity Class (ARG II)
pIC50: −log10 of the molar value. Structures can show the parent of a compound that is named as a salt.
endpoint.label: pIC50

[[record]]
compound = "CC(C)[C@H](N)C(=O)NC[C@H]1CC[C@@H](CCB(O)O)C[C@]1(N)C(=O)O [Example 34, dihydrochloride]"
measured_value = "< 6.52"

[[record]]
compound = "CC(C)[C@@H](N)C(=O)NC[C@@H]1CC[C@@H](CCB(O)O)C[C@]1(N)C(=O)O [Example 23, dihydrochloride]"
measured_value = "< 6.52"

[[record]]
compound = "N[C@@H](CS)C(=O)NC[C@@H]1CC[C@@H](CCB(O)O)C[C@]1(N)C(=O)O [Example 27, dihydrochloride]"
measured_value = "< 6.52"

[[record]]
compound = "NC(=O)CC[C@H](N)C(=O)NC[C@@H]1CC[C@@H](CCB(O)O)C[C@]1(N)C(=O)O [Example 28, dihydrochloride]"
measured_value = "< 6.52"

[[record]]
compound = "N[C@@H](Cc1c[nH]cn1)C(=O)NC[C@@H]1CC[C@@H](CCB(O)O)C[C@]1(N)C(=O)O [Example 8, trihydrochloride]"
measured_value = "< 6.52"

[[record]]
compound = "C[C@@H](N)C(=O)NC[C@@H]1CC[C@@H](CCB(O)O)C[C@]1(N)C(=O)O [Example 22, dihydrochloride]"
measured_value = "< 6.52"

[[record]]
compound = "CC(C)[C@H](N)C(=O)NC[C@@H]1CC[C@@H](CCB2OC(=O)CC(CC(=O)O)(C(=O)O)O2)C[C@]1(N)C(=O)O (stereo partly shown) [Example 33, dihydrochloride]"
measured_value = "< 6.52"

[[record]]
compound = "CCC[C@H](N)C(=O)NC[C@@H]1CC[C@@H](CCB(O)O)C[C@]1(N)C(=O)O [Example 20, dihydrochloride]"
measured_value = "< 6.52"

[[record]]
compound = "CC(C)(C)[C@H](N)C(=O)NC[C@@H]1CC[C@@H](CCB(O)O)C[C@]1(N)C(=O)O [Example 12, dihydrochloride]"
measured_value = "6.52 to 6.70"

[[record]]
compound = "N[C@@H](Cc1c[nH]c2ccccc12)C(=O)NC[C@@H]1CC[C@@H](CCB(O)O)C[C@]1(N)C(=O)O [Example 18, dihydrochloride]"
measured_value = "< 6.52"

[[record]]
compound = "CC(C)C[C@H](N)C(=O)NC[C@@H]1CC[C@@H](CCB(O)O)C[C@]1(N)C(=O)O [Example 6, dihydrochloride]"
measured_value = "6.70 to 7.00"

[[record]]
compound = "CN[C@]1(C(=O)O)C[C@H](CCB(O)O)CC[C@H]1CNC(=O)[C@H](C)N [Example 36, dihydrochloride]"
measured_value = "< 6.52"

[[record]]
compound = "CC(C)[C@H](N)C(=O)NC[C@@H]1CC[C@@H](CCB(O)O)C[C@]1(N)C(=O)O [Example 2, dihydrochloride]"
measured_value = "6.52 to 6.70"


* * *

study.system: recombinant human arginase 1 (hARG1) (Homo sapiens)
Sequence (P05089 whole entry): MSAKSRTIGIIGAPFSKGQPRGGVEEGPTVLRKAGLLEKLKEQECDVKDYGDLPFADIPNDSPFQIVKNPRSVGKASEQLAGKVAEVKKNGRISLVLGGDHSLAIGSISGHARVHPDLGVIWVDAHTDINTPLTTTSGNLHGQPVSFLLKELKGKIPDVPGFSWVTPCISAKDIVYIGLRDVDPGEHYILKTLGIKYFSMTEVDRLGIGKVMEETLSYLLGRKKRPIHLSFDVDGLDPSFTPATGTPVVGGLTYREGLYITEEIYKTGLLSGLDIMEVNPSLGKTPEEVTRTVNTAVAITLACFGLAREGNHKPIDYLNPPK
test.description: Human arginase inhibition assay (colorimetric urea detection), arginase 1
condition.info: IC50 class; hydrochloride salts; 1 h at 37° C., pH 7.4, 10 mM L-arginine, 200 μM MnCl2; read-out: Activity Class (ARG I)
pIC50: −log10 of the molar value. Structures can show the parent of a compound that is named as a salt.
pIC50 values for the compounds below.
endpoint.label: pIC50

[[record]]
compound = "CC(C)[C@H](N)C(=O)NC[C@@H]1CC[C@@H](CCB(O)O)C[C@]1(N)C(=O)O [Example 2, dihydrochloride]"
measured_value = "6.70 to 7.00"

[[record]]
compound = "N[C@@H](Cc1c[nH]c2ccccc12)C(=O)NC[C@@H]1CC[C@@H](CCB(O)O)C[C@]1(N)C(=O)O [Example 18, dihydrochloride]"
measured_value = "6.70 to 7.00"

[[record]]
compound = "CCC[C@H](N)C(=O)NC[C@@H]1CC[C@@H](CCB(O)O)C[C@]1(N)C(=O)O [Example 20, dihydrochloride]"
measured_value = "7.00 to 9.00"

